Just for reference, PubChem BioAssay (NCI) is where these values come from.

In this section we review reported growth values for a set of compounds.
- System: HL-60(TB) leukemia
- assay summary: NCI-60 one-dose screen, 48 h (100 = growth as untreated, 0 = no growth, -100 = all killed)
- conditions: 10 µM unless noted
About 83,000 compounds went through this panel and 20% of them were active in at least one assay; those are over-represented in the sample as a whole.
assay metric: growth (%)

compound=O=C(N/N=C/c1ccc(F)cc1)c1ccccc1Nc1cccc(C(F)(F)F)c1 assay_metric=growth reported_value=88.1
compound=CCOC(=O)c1cc(C(=O)c2cc(OC)c(OC)c(OC)c2)n2ncc3ccccc3c12 assay_metric=growth reported_value=28.7
compound=CCOC(=O)c1cc2c(n1Cc1ccccc1)-c1oncc1CCC2 assay_metric=growth reported_value=33.9
compound="COc1cccc(C2C(C#N)=C(N)Oc3cc4c(cc32)OCO4)c1 (stereo unspecified)" assay_metric=growth reported_value=-45
compound=C=CCc1cc(C(C)=O)cc(OC)c1O assay_metric=growth reported_value=71.1
compound=O=C(C=P(c1ccccc1)(c1ccccc1)c1ccccc1)c1ccc(Br)cc1 assay_metric=growth reported_value=8.84
compound=CCCCCCNC(=O)Oc1ccc(/C(=C(\C)c2ccc(Cl)cc2)c2ccc(OCCN3CCCCC3)cc2)cc1 assay_metric=growth reported_value=-18.5
compound=CCCc1c(C)c2sc(=O)[nH]c2[nH]c1=O assay_metric=growth reported_value=101
compound=CSc1nc2sc3c(c2c(=O)n1-c1ccc([N+](=O)[O-])cc1)CCCCC3 assay_metric=growth reported_value=97.7
compound=Cc1c(C(=O)NCCN2CCOCC2)cn2ncnc(Oc3ccc(NC(=O)Nc4ccc(Cl)c(C(F)(F)F)c4)cc3)c12 assay_metric=growth reported_value=-0.946
compound="CCCCCCCC12Cc3ccccc3C1=Nc1c(c3ccccc3n1C)C2=O (stereo unspecified)" assay_metric=growth reported_value=91.4
compound=O=C(CSc1nnc2n1S(=O)(=O)c1ccccc1N2c1ccccc1)Nc1nc2ccc(F)cc2s1 assay_metric=growth reported_value=106
compound=Cc1cc(N2CCCC2)nc(N(CCNc2ccnc3cc(Cl)ccc23)Cc2ccco2)n1 assay_metric=growth reported_value=-52.8
compound=Clc1ccc2nc(Cl)c3ccccc3c2c1 assay_metric=growth reported_value=92.3
compound=Cn1cc(-c2csc(-c3cn(CCCN4CCCCC4)c4ccc(F)cc34)n2)c2cccnc21 assay_metric=growth reported_value=56.3
compound=O=C(NCCCCNC(=O)OCc1ccc2c(Cl)cc(Cl)c(O)c2n1)OCc1ccc2c(Cl)cc(Cl)c(O)c2n1 assay_metric=growth reported_value=-49.2
compound="CC(C)(C)NC(C1=CC(C)(C)c2ccccc2C1=O)c1ccccc1 (stereo unspecified)" assay_metric=growth reported_value=-45.2
compound=CCOc1ccc(NC(=S)N2CCC(CCCC3CCN(C(=S)Nc4ccc(OCC)cc4)CC3)CC2)cc1 assay_metric=growth reported_value=68.9
compound=COc1ccc(/C=C/C(=O)c2c(C)nc3ccccc3c2/C=C/c2ccccc2)c(OC)c1 assay_metric=growth reported_value=66.7
compound=CCOc1ccc(-c2nonc2NC(=O)c2cccc(C)c2)cc1OCC assay_metric=growth reported_value=73
compound=Cc1cccc2c(=O)c3c(sc12)c(NCCCN)nc1ccccc13 assay_metric=growth reported_value=-34.9
